# study_system: CYP2A6 (Homo sapiens)
# Sequence (P11509 1-494): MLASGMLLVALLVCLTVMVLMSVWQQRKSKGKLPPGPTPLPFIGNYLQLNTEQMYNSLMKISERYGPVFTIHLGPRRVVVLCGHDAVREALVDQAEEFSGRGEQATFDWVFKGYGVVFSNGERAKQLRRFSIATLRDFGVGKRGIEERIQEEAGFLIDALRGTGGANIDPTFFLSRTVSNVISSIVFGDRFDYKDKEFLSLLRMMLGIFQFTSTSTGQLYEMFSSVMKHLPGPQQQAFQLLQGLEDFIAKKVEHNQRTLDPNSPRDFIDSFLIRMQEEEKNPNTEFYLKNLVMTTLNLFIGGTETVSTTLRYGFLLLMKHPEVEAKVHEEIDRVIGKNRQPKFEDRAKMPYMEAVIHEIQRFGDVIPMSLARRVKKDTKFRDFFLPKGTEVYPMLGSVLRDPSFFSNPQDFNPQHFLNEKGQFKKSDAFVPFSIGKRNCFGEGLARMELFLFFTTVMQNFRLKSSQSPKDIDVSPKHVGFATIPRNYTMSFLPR
# method: Cellular CYP2A6 inhibition screening
endpoint_label: IC50 (µM)
Give just the number in µM; leave the unit off.

1. COc1cc(C=O)ccc1O [vanillin]	200
2. O=Cc1ccccc1 [benzaldehyde]	7.6

Quick one: IC50 for O=C/C=C/c1ccccc1 [cinnamaldehyde, trans-cinnamaldehyde] ?
7.4
